FYI, the data here is from patent US20260109763A1.

- MEASUREMENT_TARGET: human PILRA G78 on cells (human, UniProt Q9UKJ1 20-303)
- Sequence (Q9UKJ1 20-303 R78G limits assumed): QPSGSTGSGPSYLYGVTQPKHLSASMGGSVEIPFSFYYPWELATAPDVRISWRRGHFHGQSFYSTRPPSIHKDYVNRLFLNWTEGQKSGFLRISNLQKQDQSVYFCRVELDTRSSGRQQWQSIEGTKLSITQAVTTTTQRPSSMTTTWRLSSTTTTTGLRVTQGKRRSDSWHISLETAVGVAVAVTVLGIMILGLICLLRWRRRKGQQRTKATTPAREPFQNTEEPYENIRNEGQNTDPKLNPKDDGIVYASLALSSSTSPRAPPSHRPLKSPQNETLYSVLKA
- ASSAY_NAME: cell-based or functional assay
EXPERIMENTAL_ENDPOINT: pSTAT3 Y705 induction, Fold Over Background (fold)
Numbers only, in fold.

Req: Which pSTAT3 Y705 induction, Fold Over Background reading was recorded for the binder Anti-PILRA antibody clone 23 (antibody, V domains shown, Humanized; also called Ab.23) VH: EVQLVQSGAEVKKPGASVKVSCKASGYTFTEYYMYWVRQAPGQGLELIGRIDPEDGGTDYVEKFKNRATLTADTSTSTAYLELSSLRSEDTAVYFCASTIRGTVFVYWGQGTLVTVSS VL: DIQMTQSPSSLSASVGDRVTITCRPSEDIYNGLAWYQQKPGKAPKLLIYNANSLHTGVPSRFSGSGSGTDYTLTISSLQPEDFATYYCQQYYDYPLTFGQGTKVEIK ?
Resp: 31.4
